Listing: kon of selected binders
# TESTED_TARGET: T1, A beta 1-40 oligomer (synthetic A beta1-40, HCl form, 0.1 mg/ml in PBS, incubated at 37 degrees C for one … (UniProt P05067 672-711))
# T1 construct: domain: A beta 1-40; Non-fibrous assembly of many copies of the same peptide; also called A beta oligomer
# ASSAY: SPR, Biacore 3000, A beta oligomer on CM5 chip, antibody as analyte
Numbers only here, please. The scale is M⁻¹ s⁻¹.

Example results:
BINDER	UNIT_OF_MEASUREMENT	kon
IR-099 antibody (antibody, V domains shown, Mouse monoclonal from a hybridoma) VH: DVQLVESGGGLVQPGGSRKLSCAASGFTFSRFGMHWVRQAPEKGLEWVAYISSGRSTIYYADTVKGRFTISRDNPKNTLFLQMTSLRSEDTAMYYCARGGGNYVGAMDYWGQGTSVTVSS VL: DAVMTQTPLSLPVSLGDQASISCRSSQSLENSNGNTYLNWYLQKPGQSPQLLIYRVSNRFSGVLDRFSGSGSGTDFTLKISRVEAEDLGVYFCLQVTHVPPTFGGGTKLEIK	M⁻¹ s⁻¹	271000
IR-130 antibody (antibody, V domains shown, Mouse monoclonal from a hybridoma) VH: EVKLVESGGGLVQPGGSLKLSCATSGFTFSDYYMYWVRQTPEKRLEWVAYISNGGGSTYYPDTVKGRFTISRDNAKNTLYLQMSRLKSEDTAMYYCARGTSYGSSLHYYAMDYWGQGTSVTVSS VL: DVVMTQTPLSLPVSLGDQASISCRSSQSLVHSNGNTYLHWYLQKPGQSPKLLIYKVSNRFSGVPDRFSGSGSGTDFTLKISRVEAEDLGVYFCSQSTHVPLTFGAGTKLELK	M⁻¹ s⁻¹	165000

From here, focus on the item given below.
Q: So what's the measured kon for this one? IR-148 antibody (antibody, V domains shown, Mouse monoclonal from a hybridoma) VH: DVQLVESGGGLVQPGGSRKLSCAASGFTFSSFGMHWVRQAPEKGLEWVAYISSGSSTIYYADTVKGRFTISRDNPKNTLFLQMTSLRSEDTAMYYCARDYYGMDYWGQGTSVTVSS VL: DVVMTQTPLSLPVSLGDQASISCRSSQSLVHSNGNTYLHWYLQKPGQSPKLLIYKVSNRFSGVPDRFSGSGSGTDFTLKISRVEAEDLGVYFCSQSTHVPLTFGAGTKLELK
Result: 24100
